Biological target: PAS domain-containing serine/threonine-protein kinase (Homo sapiens) (UniProt Q96RG2)
Sequence (Q96RG2 whole entry, the tested form may be a part): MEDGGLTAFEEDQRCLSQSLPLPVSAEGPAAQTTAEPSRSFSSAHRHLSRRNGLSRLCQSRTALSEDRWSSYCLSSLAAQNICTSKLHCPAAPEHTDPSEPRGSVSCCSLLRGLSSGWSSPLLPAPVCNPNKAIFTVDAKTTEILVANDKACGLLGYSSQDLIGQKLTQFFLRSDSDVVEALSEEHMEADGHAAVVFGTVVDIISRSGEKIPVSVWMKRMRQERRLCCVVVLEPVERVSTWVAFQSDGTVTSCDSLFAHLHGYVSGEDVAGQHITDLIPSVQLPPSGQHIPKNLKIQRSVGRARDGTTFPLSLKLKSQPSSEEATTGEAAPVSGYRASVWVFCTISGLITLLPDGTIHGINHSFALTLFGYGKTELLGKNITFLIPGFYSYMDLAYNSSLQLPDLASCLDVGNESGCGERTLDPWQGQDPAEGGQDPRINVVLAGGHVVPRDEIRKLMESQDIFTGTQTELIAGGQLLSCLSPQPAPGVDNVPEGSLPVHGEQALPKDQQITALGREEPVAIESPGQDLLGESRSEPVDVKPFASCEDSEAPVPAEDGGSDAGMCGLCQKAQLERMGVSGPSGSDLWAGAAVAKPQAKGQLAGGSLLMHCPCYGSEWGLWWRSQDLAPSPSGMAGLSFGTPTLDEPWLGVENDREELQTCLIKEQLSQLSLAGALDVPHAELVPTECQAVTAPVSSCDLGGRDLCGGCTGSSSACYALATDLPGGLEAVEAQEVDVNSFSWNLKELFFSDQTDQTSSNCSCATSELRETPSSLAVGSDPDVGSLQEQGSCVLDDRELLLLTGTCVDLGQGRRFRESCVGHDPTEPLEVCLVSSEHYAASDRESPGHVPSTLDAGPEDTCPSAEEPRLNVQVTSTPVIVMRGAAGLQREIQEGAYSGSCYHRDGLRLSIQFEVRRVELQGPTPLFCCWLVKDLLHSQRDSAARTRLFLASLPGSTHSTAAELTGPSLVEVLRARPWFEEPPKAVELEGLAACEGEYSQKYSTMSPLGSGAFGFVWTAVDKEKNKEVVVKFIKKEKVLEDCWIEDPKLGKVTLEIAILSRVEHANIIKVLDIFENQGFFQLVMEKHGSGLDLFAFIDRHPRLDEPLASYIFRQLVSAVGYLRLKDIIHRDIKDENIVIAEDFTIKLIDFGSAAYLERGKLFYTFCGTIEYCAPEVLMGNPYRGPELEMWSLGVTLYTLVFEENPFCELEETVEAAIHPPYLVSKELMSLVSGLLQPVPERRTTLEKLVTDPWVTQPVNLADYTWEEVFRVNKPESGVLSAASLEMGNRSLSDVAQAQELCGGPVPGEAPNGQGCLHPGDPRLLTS
Details: at 0.1 µM
Description: GSK_PKIS: PASK mean inhibition at 0.1 uM [Nanosyn]
Provide the reported inhibition of each item.
Numbers only, in %.

Completed entries (count: 6):
[[record]]
compound_string = "COc1ccc2ncn(-c3cc(O[C@H](C)c4ccccc4C(F)(F)F)c(C(N)=O)s3)c2c1"
result_number = -0.55

[[record]]
compound_string = "CS(=O)(=O)Nc1ccc(-c2ccc3c(NC(=O)C4CC4)n[nH]c3c2)cc1"
result_number = 0.49

[[record]]
compound_string = "CN(C)CCNC(=O)Nc1ccc(N(C)c2ccnc(Nc3ccc(CS(C)(=O)=O)cc3)n2)cc1"
result_number = 1.26

[[record]]
compound_string = "NS(=O)(=O)c1ccc(N/N=C2\\C(=O)Nc3ccc(C(=O)NCc4ccncc4)cc32)cc1"
result_number = 0.76

[[record]]
compound_string = "CS(=O)(=O)CCNCc1ccc(-c2ccc3ncnc(Nc4ccc(OCc5ccccc5)cc4)c3c2)o1"
result_number = 0.96

[[record]]
compound_string = "COc1cc(N2CCN(C(C)C)CC2)ccc1Nc1nc(Nc2cccc3ncccc23)c2cc[nH]c2n1"
result_number = -0.26


Let's switch to this molecule now.
# returns recorded inhibition (system: PAS domain-containing serine/threonine-protein kinase (Homo sapiens) (UniProt Q96RG2)) for `CCN1CCC(C(=O)Nc2n[nH]c3nnc(-c4cccc(F)c4F)cc23)CC1`
1.35

====

Target: Cyclin-dependent kinase 5 (Homo sapiens) (UniProt Q00535);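 further: mean value of inhibition, with the enzyme tested as CDK5/p35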
Sequence (Q00535 whole entry, looked up): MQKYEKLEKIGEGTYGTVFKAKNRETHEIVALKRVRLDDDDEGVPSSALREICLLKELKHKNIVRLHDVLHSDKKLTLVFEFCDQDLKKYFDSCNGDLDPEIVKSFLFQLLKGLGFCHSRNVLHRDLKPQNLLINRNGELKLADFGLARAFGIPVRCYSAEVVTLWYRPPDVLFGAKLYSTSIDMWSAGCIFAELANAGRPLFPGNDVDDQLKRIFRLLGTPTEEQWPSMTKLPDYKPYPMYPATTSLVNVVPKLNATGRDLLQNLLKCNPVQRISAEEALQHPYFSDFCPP
Settings: at 1 µM
Readout: inhibition (%)
One number for each entry, in %.

In the examples that follow, each entry is paired with its recorded inhibition.
[[record]]
molecule = "CS(=O)(=O)CCNCc1ccc(-c2ccc3ncnc(Nc4ccc(OCc5ccccc5)cc4)c3c2)o1"
readout = "inhibition"
result_number = 2.07

[[record]]
molecule = "CCOc1ccc2c(-c3ccnc(Nc4cc(OC)cc(C(F)(F)F)c4)n3)cnn2n1"
readout = "inhibition"
result_number = 9.18

[[record]]
molecule = "Cc1cc(O)cc(C)c1/C=C/c1cncc(C(N)=O)c1"
readout = "inhibition"
result_number = 1.61

[[record]]
molecule = "COc1ccc(-c2nn3ncccc3c2-c2ccnc(Nc3ccc(F)c(F)c3)n2)cc1"
readout = "inhibition"
result_number = 1.15

[[record]]
molecule = "CC1=C(C(=O)Nc2ccc3[nH]nc(C)c3c2)C(c2ccc(C(F)(F)F)cc2)CC(=O)N1 (stereo not given)"
readout = "inhibition"
result_number = 6.22

[[record]]
molecule = "O=C(Nc1n[nH]c2nnc(-c3cccnc3)cc12)C1CC1"
readout = "inhibition"
result_number = 69.2

[[record]]
molecule = "COc1ccc(Nc2ncc(-c3ccccc3)o2)cc1OC"
readout = "inhibition"
result_number = 45.7

[[record]]
molecule = "N#Cc1cccc(Nc2ncc(-c3ccccc3)o2)c1"
readout = "inhibition"
result_number = 30.5

[[record]]
molecule = "COc1cccc(-n2ncc3c(N/N=C/c4ccc(C(=O)NCCN(C)C)cc4)ncnc32)c1"
readout = "inhibition"
result_number = 74.3


Turning now to a further record.
Please look up its inhibition: `CS(=O)(=O)Nc1ccc(-c2ccc3c(NC(=O)C4CC4)n[nH]c3c2)cc1`
1.18

====

For each of the compounds below, state its inhibition.
Biological target: Cyclin-dependent kinase 1 (Homo sapiens);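 further: enzyme assay on the CDK1/cyclin B complex, reported as mean percent inhibition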
Settings: at 0.1 µM
Give bare numbers, in %.

Please review the following examples before continuing.
[[record]]
compound = "COC(=O)Nc1nc2ccc(Oc3ccc(NC(=O)Nc4cc(C(F)(F)F)ccc4F)cc3)cc2s1"
uom = "%"
result_number = 0.44

[[record]]
compound = "CS(=O)(=O)CCNCc1ccc(-c2ccc3ncnc(Nc4ccc(OCc5cccc(C(F)(F)F)c5)cc4)c3c2)o1"
uom = "%"
result_number = 1.34

[[record]]
compound = "O=C1Nc2ccccc2/C1=C1\\CCc2cc(O)ccc21"
uom = "%"
result_number = 1.03


Give inhibition for each listed item.
1. FC(F)(F)CNc1nccc(-c2cnn3ncccc23)n1
2. N#Cc1ccc2c(-c3ccnc(NC4CC4)n3)c(-c3ccc(F)cc3)nn2c1
3. CCN1CCC(C(=O)Nc2n[nH]c3nnc(-c4cccc(F)c4F)cc23)CC1
4. COc1ccccc1-c1cc(/C=C2\C(=O)Nc3ncc(Br)cc32)cc(Br)c1O
5. CC1=C(C(=O)Nc2ccc3[nH]ncc3c2)C(c2ccc(F)cc2)N=C(c2ccc(C(F)(F)F)nc2)N1 (stereo not given)
6. CCn1c(-c2nonc2N)nc2cncc(C(=O)NCCNC)c21

4.59
0.15
3.89
3.53
-0.29
0.45

Given `CCOc1ccc2c(-c3ccnc(Nc4cc(OC)cc(C(F)(F)F)c4)n3)cnn2n1` , state its recorded inhibition.
2.86
